experiment: in vivo; details: male, NODSCID 1L2RγKO, mouse, iv, total radioactivity, Fat uptake
Measured tissue uptake at 1 h, listed per entry for reference.

COMPOUND | MEASUREMENT_UNIT | tissue uptake at 1 h
O=C(O)CCC[C@H](NC(=O)N[C@@H](CCCCNC(=O)[C@H](Cc1cccc(I)c1)NC(=O)[C@H]1CC[C@H](CNC(=O)CN2CCN(CC(=O)O)CCN(CC(=O)O)CCN(CC(=O)O)CC2)CC1)C(=O)O)C(=O)O [68Ga-HTK04053, metal not drawn] | %ID/g | 0.04
O=C(O)CCC[C@H](NC(=O)N[C@@H](CCCCNC(=O)[C@H](Cc1c2ccccc2cc2ccccc12)NC(=O)Cc1ccc(CNC(=O)CN2CCN(CC(=O)O)CCN(CC(=O)O)CCN(CC(=O)O)CC2)cc1)C(=O)O)C(=O)O [68Ga-HTK04036, metal not drawn] | %ID/g | 0.09
O=C(O)CC[C@H](NC(=O)N[C@@H](CCCCNC(=O)[C@H](Cc1c2ccccc2cc2ccccc12)NC(=O)[C@H]1CC[C@H](CNC(=O)CN2CCN(CC(=O)O)CCN(CC(=O)O)CCN(CC(=O)O)CC2)CC1)C(=O)O)C(=O)O [68Ga-HTK03041, metal not drawn] | %ID/g | 2.06
O=C(O)CCC[C@H](NC(=O)N[C@@H](CCCCNC(=O)[C@H](Cc1ccc2ccccc2c1)NC(=O)[C@H]1CC[C@H](CNC(=O)CN2CCN(CC(=O)O)CCN(CC(=O)O)CCN(CC(=O)O)CC2)CC1)C(=O)O)C(=O)O [68Ga-HTK03169, metal not drawn] | %ID/g | 0.09
